// provenance: patent US12059418B2

# System: P. falciparum
# experiment: In vitro parasite killing, SYBR Green I fluorescence assay in RPMI 1640 or PLM (Example 1)
# Format: cell-based
# experimental-setup: Plasmodium falciparum, 72 h; RPMI 1640 standard media, 3 days; read-out: RPMI IC50
result-type: pIC50
Scale note: pIC50 = -log10(concentration in M).

INSERT INTO assay_data (compound, assay_value) VALUES
  ('OC(c1cc(C(F)(F)F)nc2c(C(F)(F)F)cccc12)C1CCCCN1 (stereo not shown)', 7.66);

INPUT: Requested read-out: pIC50. Entry: C[C@@H]1CC[C@H]2[C@@H](C)C(=O)O[C@@H]3O[C@@]4(C)CC[C@@H]1[C@]32OO4
OUTPUT: 7.74

INPUT: Quick one: Cc1ccc(C)c(N2CCN(S(=O)(=O)c3ccc(-c4ccc(=O)[nH]n4)s3)CC2)c1
OUTPUT: 5.82

====

# Test system: human HeLa cells
# experiment: Mammalian cytotoxicity, MTS viability
# Format: cell-based
result-type: specificity (HeLa CC50/parasite PLM IC50)

INSERT INTO results (compound, assay_value) VALUES
  ('Cc1ccc(C)c(N2CCN(S(=O)(=O)c3ccc(-c4ccc(=O)[nH]n4)s3)CC2)c1', '43,000'),
  ('O=C1Nc2cc(C(=O)N3CCN(c4ccccc4)CC3)ccc2Sc2ccccc21', '>530'),
  ('COc1ccc(NC(=O)c2cc3cc4ccc(C)cc4nc3o2)cc1', '>430'),
  ('CCCCN(CC)C(=O)c1cc2cc3ccc(C)cc3nc2o1', 110),
  ('CC1=Nc2ccc(C)cc2C1/C=C1/C(=N)N2N=C(S(=O)(=O)CC(C)C)SC2=NC1=O (stereo not drawn)', '>50');

INPUT: Requested read-out: specificity (HeLa CC50/parasite PLM IC50). Entry: CCN(Cc1ccccc1)C(=O)c1ccc2c(c1)NC(=O)c1ccccc1S2
OUTPUT: >240

====

# System: P. falciparum
# experiment: In vitro parasite killing, SYBR Green I fluorescence assay in RPMI 1640 or PLM (Example 1)
# Format: cell-based
# experimental-setup: Plasmodium falciparum, 72 h; PSAC-limiting medium (PLM), 3 days; read-out: PLM IC50
Reported pIC50 values follow for various molecules
Scale note: pIC50 = -log10(concentration in M).

These solved cases illustrate the format of a correct answer.
INSERT INTO results (molecule, assay_value) VALUES
  ('Cc1ccc(C)c(N2CCN(S(=O)(=O)c3ccc(-c4ccc(=O)[nH]n4)s3)CC2)c1 [Compound of formula (1a)]', 8.64),
  ('OC(c1cc(C(F)(F)F)nc2c(C(F)(F)F)cccc12)C1CCCCN1 (stereo not shown) [mefloquine]', 7.48),
  ('CCc1nn2c(=O)cc(CSc3nc4ccc(NC(=O)c5cccs5)cc4s3)nc2s1 [Compound of formula (2a)]', 6.52);

Kindly review the next molecule as well.
INPUT: Notebook: pull reported pIC50 for P. falciparum, entry C[C@@H]1CC[C@H]2[C@@H](C)C(=O)O[C@@H]3O[C@@]4(C)CC[C@@H]1[C@]32OO4 [artemisinin]
OUTPUT: 7.59

====

# System: P. falciparum
# experiment: In vitro parasite killing, SYBR Green I fluorescence assay in RPMI 1640 or PLM (Example 1)
# Type: cell-based
# experimental-setup: Plasmodium falciparum, 72 h, read-out: PLM IC50
result-type: pIC50
Scale note: pIC50 = -log10(concentration in M).

INPUT: Requested read-out: pIC50. Entry: CCN(CC)CCCC(C)Nc1ccnc2cc(Cl)ccc12 (stereo not shown) [chloroquine, reference compound]
OUTPUT: 6.47
